SYSTEM_UNDER_TEST: SETD2(1434-1711) (Homo sapiens, UniProt Q9BYW2)
Construct: SETD2 (1434-1711) Assay; catalogue N/A
Sequence (Q9BYW2 1434-1711): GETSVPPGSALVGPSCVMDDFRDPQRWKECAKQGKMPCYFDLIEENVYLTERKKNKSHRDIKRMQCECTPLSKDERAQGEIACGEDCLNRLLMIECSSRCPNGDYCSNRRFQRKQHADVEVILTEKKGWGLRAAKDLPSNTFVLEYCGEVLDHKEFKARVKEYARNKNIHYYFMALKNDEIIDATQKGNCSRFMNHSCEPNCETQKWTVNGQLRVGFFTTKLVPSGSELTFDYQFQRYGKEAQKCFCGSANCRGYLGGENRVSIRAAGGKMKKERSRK
METHOD_NOTES: SETD2 (1434-1711) assay
Type: biochemical
CONDITION: read-out: SETD2 (1434-1711)
REPORTED_ENDPOINT: IC50 (nM)

Solved entries (count: 6):
Cc1cccc2cc(C(=O)Nc3ccc(CN4CCOCC4)cc3)[nH]c12 [compound 691] ... 56200
Cc1ccc(F)c2cc(C(=O)Nc3cccc(N4CCC(O)(CN(C)C)CC4)c3)[nH]c12 [compound 254] ... 60
Cc1ccc(F)c2cc(C(=O)N[C@@H]3CCCC(N4CCC5(CCC(=O)N5)CC4)C3)[nH]c12 (some centres unmarked) [compound 894] ... 30
Cc1ccc(F)c2cc(C(=O)Nc3cccc(N4CCN(C)C4=O)c3)[nH]c12 [compound 191] ... 30
COC(=O)C[C@H](NC(=O)c1cc2cccc(C)c2[nH]1)C(=O)OC [compound 708] ... 74000
Cc1ccc(F)c2cc(C(=O)N[C@@H]3CCCN(C4CCN(C(=O)CN(C)C)CC4)C3)[nH]c12 [compound 891] ... 900

(1) CC(=O)N1CCC(N2CCCC(NC(=O)c3cc4c(F)ccc(C)c4[nH]3)C2)CC1 (centres unmarked) [compound 366]
(2) Cc1ccc(F)c2cc(C(=O)NC(c3nccc4ccccc34)C3CC3)[nH]c12 (centres unmarked) [Cpd. No. 507]
(3) Cc1ccc(F)c2cc(C(=O)Nc3cccc(N4CCC(OCCN)CC4)c3)[nH]c12 [compound 240]
(4) COC(=O)CC(NC(=O)c1cc2cccc(C)c2[nH]1)c1ccccc1C (centres unmarked) [compound 677]
(5) Cc1ccc(F)c2cc(C(=O)N[C@@H]3CCC[C@H](N4CCN(CC(F)(F)F)CC4)C3)[nH]c12 [compound 826]
Q) Highest IC50 first, then in falling order down to the smallest. Rank them, then answer with their labels in that order.
A) 4, 1, 2, 5, 3
(4: 39500 nM, 1: 3000 nM, 2: 1100 nM, 5: 100 nM, 3: 20 nM)

(1) CC(=O)N1CCN(C2CCCC(NC(=O)c3cc4c(F)ccc(C)c4[nH]3)C2)CC1CO (centres unmarked) [compound 1022]
(2) Cc1csc(C(C)NC(=O)c2cc3cccc(C)c3[nH]2)n1 (centres unmarked) [compound 688]
Q) Please indicate which entry, 1 or 2 , has the lower recorded IC50 value. Pick one and reply with its label.
A) 1
